tested.on: Plasma Kallikrein (Homo sapiens (Human))
Sequence (P03952 391-638): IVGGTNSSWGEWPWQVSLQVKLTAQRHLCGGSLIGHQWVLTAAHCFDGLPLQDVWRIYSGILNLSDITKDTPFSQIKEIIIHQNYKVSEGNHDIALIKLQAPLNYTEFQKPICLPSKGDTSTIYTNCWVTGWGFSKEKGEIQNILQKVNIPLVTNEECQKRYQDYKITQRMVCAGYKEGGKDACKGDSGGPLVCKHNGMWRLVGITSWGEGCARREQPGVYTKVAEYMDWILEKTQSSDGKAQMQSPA
Sequence (P03952 20-390 partner): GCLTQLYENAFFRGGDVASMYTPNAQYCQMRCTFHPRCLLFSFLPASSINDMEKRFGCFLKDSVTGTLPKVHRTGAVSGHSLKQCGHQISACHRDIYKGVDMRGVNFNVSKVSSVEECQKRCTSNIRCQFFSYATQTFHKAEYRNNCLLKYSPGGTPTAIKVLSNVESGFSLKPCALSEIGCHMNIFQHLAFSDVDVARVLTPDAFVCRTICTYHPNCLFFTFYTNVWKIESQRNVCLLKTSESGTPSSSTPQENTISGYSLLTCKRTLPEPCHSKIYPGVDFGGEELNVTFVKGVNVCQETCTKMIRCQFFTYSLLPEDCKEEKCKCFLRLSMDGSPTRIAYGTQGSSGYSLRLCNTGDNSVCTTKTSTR
assay.remarks: Determination of related protease inhibition: Plasma Kallikrein (fluorogenic substrate at Km)
assay.conditions: 25° C., read-out: IC50 (human PKal)
pIC50: −log10 of the molar value.
property.measured: pIC50

[
  {
    "compound": "Cc1cc2c(NCc3ccnc(OCC4CCN(C)CC4)c3)ccnc2[nH]1",
    "pIC50": "< 4.00"
  },
  {
    "compound": "CN1CCC(COc2cc(CNc3cccc4c(N)ncc(F)c34)ccn2)CC1",
    "pIC50": "< 4.40"
  },
  {
    "compound": "CN1CCC(CNc2ccc(CNc3cnn(-c4cccc(Cl)c4)c3)cn2)CC1",
    "pIC50": "< 4.00"
  },
  {
    "compound": "Cn1ccnc1COCc1ccc(CNc2cccc3c(N)nccc23)c(F)c1",
    "pIC50": "5.00 to 5.52"
  },
  {
    "compound": "CN1CC2CC1CC2COc1cc(CNc2ccc3c(N)nccc3c2)ccn1 (stereo not drawn)",
    "pIC50": "5.00 to 5.52"
  },
  {
    "compound": "Nc1nccc2c(NCc3ccc(N4CCn5ncc(CO)c5C4)nc3)cccc12",
    "pIC50": "< 4.40"
  },
  {
    "compound": "Nc1nccc2c(NCc3ccc(CCN4CCOCC4)cc3F)cccc12",
    "pIC50": "< 4.40"
  },
  {
    "compound": "CN1CCC(CNc2ccc(CNc3ccnc4[nH]c(C(N)=O)cc34)cn2)CC1",
    "pIC50": "< 4.40"
  }
]

Give me pIC50 for each of these compounds, listed below.
1. CN1CCC(COc2cc(CNc3nccc4c(N)ccnc34)ccn2)CC1
2. CN1C[C@@H](COc2cc(CNc3cccc4c(N)nccc34)ccn2)OC1=O
3. Nc1nccc2c(NCc3cnc(N4CCn5c(nnc5C(F)(F)F)C4)cc3C(F)(F)F)cccc12

## Result
1: < 4.40; 2: < 4.40; 3: < 4.40

Give me pIC50 for each of these compounds, listed below.
1. Nc1ncc(Cl)c2cc(NCc3ccc(N4CCn5nccc5C4CO)nc3)ccc12 (stereo not drawn)
2. Nc1nccc2c(NCc3ccnc(NCCC(=O)N4CCCC4)c3)cccc12
3. CN1CCC(OCc2ccc(CNc3ccc4cnc(N)cc4c3)cc2)CC1
4. Cc1cnc2[nH]c(Cl)cc2c1NCc1ccc(NCC2CCN(C)CC2)nc1
5. CN1CCC(COc2ccc(CNc3ccc4cnccc4c3)cn2)CC1
6. CN1CCC(CNc2ccc(CNc3cc(F)c4c(N)nccc4c3)cn2)CC1
7. CN1CCC(CNc2cc(CNc3cccc4c(N)nccc34)ccn2)CC1

## Result
1. < 4.40
2. 4.40 to 5.00
3. 4.40 to 5.00
4. < 4.40
5. 4.40 to 5.00
6. 5.00 to 5.52
7. 4.40 to 5.00
